- system-under-test: UniProt Q15761
- Sequence (Q15761 whole entry): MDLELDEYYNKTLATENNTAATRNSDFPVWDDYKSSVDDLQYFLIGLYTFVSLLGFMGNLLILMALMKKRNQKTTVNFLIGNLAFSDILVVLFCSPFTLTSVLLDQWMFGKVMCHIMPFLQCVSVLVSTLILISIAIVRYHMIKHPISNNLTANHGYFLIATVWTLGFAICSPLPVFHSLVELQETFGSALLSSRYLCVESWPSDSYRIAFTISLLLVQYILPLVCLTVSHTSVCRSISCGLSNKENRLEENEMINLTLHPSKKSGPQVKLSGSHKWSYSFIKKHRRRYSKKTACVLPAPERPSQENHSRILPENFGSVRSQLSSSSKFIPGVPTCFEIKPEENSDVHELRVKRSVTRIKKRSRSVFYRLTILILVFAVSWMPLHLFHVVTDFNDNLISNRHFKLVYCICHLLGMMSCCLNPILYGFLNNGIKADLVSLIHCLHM
- protocol-details: Displacement of Cy5-pNPY from human Y5 receptor expressed in human HEC-1B cells after 90 to 120 mins by flow cytometry
- Format: cell-based
pKi: −log10 of the molar value. Residues, ends and D or L forms follow the SMILES beside them.

{"compound": "CCCC[C@H](NC(=O)[C@H](CC(N)=O)NC(=O)[C@@H](NC(=O)[C@H](Cc1ccc(O)cc1)NC(=O)[C@H](CCCNC(=N)N)NC(=O)[C@H](CCCNC(=N)N)NC(C)=O)[C@@H](C)CC)C(=O)N[C@@H](CC(C)C)C(=O)N[C@H](C(=O)N[C@@H](CCCNC(=N)N)C(=O)N[C@H]1CCC[C@H]1C(=O)N[C@@H](CCCNC(=N)N)C(=O)N[C@@H](Cc1ccc(O)cc1)C(N)=O)[C@@H](C)O (HELM PEPTIDE1{[ac].R.R.Y.I.N.[Nle].L.T.R.[O=C([C@@H]1CCC[C@@H]1N[*:1])[*:2]].R.Y.[am]}$$$$V2.0)", "system-under-test": "UniProt Q15761", "pKi": "< 6.30"}
{"compound": "CCCC[C@H](NC(=O)[C@H](CC(N)=O)NC(=O)[C@@H](NC(=O)[C@H](Cc1ccc(O)cc1)NC(=O)[C@H](CCCNC(=N)N)NC(=O)[C@H](CCCNC(=N)N)NC(C)=O)[C@@H](C)CC)C(=O)N[C@@H](CC(C)C)C(=O)N[C@H](C(=O)N[C@@H](CCCNC(=N)N)C(=O)N[C@H]1CC[C@H]1C(=O)N[C@@H](CCCNC(=N)N)C(=O)N[C@@H](Cc1ccc(O)cc1)C(N)=O)[C@@H](C)O (HELM PEPTIDE1{[ac].R.R.Y.I.N.[Nle].L.T.R.[O=C([C@@H]1CC[C@@H]1N[*:1])[*:2]].R.Y.[am]}$$$$V2.0)", "system-under-test": "UniProt Q15761", "pKi": "< 6.00"}
{"compound": "CC[C@H](C)[C@H](NC(=O)[C@H](Cc1ccc(O)cc1)NC(=O)[C@H](Cc1cnc[nH]1)NC(=O)[C@H](CCCNC(=N)N)NC(C)=O)C(=O)N[C@@H](CC(N)=O)C(=O)N[C@@H](CC(C)C)C(=O)N[C@H](C(=O)N[C@H](C(=O)N[C@@H](CCCNC(=N)N)C(=O)N[C@H]1CC[C@H]1C(=O)N[C@@H](CCCNC(=N)N)C(=O)N[C@@H](Cc1ccc(O)cc1)C(N)=O)[C@@H](C)O)[C@@H](C)CC (HELM PEPTIDE1{[ac].R.H.Y.I.N.L.I.T.R.[O=C([C@@H]1CC[C@@H]1N[*:1])[*:2]].R.Y.[am]}$$$$V2.0)", "system-under-test": "UniProt Q15761", "pKi": "< 6.00"}
{"compound": "CC(=O)N[C@H](C(=O)N[C@@H](CCCNC(=N)N)C(=O)N[C@H]1CCC[C@H]1C(=O)N[C@@H](CCCNC(=N)N)C(=O)N[C@@H](Cc1ccc(O)cc1)C(N)=O)[C@@H](C)O (HELM PEPTIDE1{[ac].T.R.[O=C([C@@H]1CCC[C@@H]1N[*:1])[*:2]].R.Y.[am]}$$$$V2.0)", "system-under-test": "UniProt Q15761", "pKi": "< 6.00"}
